System: Human immunodeficiency virus type 1 reverse transcriptase (Human immunodeficiency virus 1), Q72547 [K103N]
Listed here are molecules together with their documented IC90.
Field: numeric (nM). Do not append units.

O=C1Nc2ccc(F)cc2C(C#Cc2cccnc2)(C(F)(F)F)O1 (centres undefined) ... 329
O=C1Nc2ccc(Cl)cc2C(C#Cc2cccnc2)(C(F)(F)F)O1 (centres undefined) ... 145
C/C=C/COC1(C(F)(F)F)OC(=O)Nc2ccc(F)cc21 (centres undefined) ... 1150
O=C1Nc2ccc(Cl)cc2C(C#Cc2ccoc2)(C(F)(F)F)O1 (centres undefined) ... 322
O=C1Nc2ccc(F)c(F)c2C(C#Cc2ccoc2)(C(F)(F)F)O1 (centres undefined) ... 280
CC(C)=CCOC1(C(F)(F)F)OC(=O)Nc2ccc(F)cc21 (centres undefined) ... 107
O=C1Nc2ccc(Cl)cc2C(C#Cc2ccco2)(C(F)(F)F)O1 (centres undefined) ... 152
O=C1Nc2ccc(F)c(F)c2C(OCC=C(Cl)Cl)(C(F)(F)F)O1 (centres undefined) ... 183

Tell us which IC90 value is on record for O=C1Nc2ccc(Cl)cc2C(C#Cc2ccsc2)(C(F)(F)F)O1 (centres undefined)
106

Tell us which IC90 value is on record for O=C1Nc2ccc(F)c(F)c2C(C#Cc2ccsc2)(C(F)(F)F)O1 (centres undefined)
139

Tell us which IC90 value is on record for CCCCOC1(C(F)(F)F)OC(=O)Nc2ccc(Cl)cc21 (centres undefined)
989

Tell us which IC90 value is on record for O=C1Nc2ccc(Cl)cc2C(OCC=C(Cl)Cl)(C(F)(F)F)O1 (centres undefined)
242

Tell us which IC90 value is on record for C/C=C/COC1(C(F)(F)F)OC(=O)Nc2ccc(Cl)cc21 (centres undefined)
404

Tell us which IC90 value is on record for O=C1Nc2ccc(F)c(F)c2C(C#Cc2cccs2)(C(F)(F)F)O1 (centres undefined)
156

----------
Tested on: Human immunodeficiency virus type 1 reverse transcriptase (Human immunodeficiency virus 1), Q72547 [K103N]
Listed here are molecules together with their documented log10 of IC90.
Parameter value (number): base-10 log of IC90 in µM.

Use these answered entries as a reference point.
O=C1Nc2ccc(Cl)cc2C(C#Cc2ccccn2)(C(F)(F)F)O1 (stereo not given) ... 0.05
CC(C)=CCOC1(C(F)(F)F)OC(=O)Nc2ccc(Cl)cc21 (stereo not given) ... -1.08
O=C1Nc2ccc(F)cc2C(C#Cc2ccoc2)(C(F)(F)F)O1 (stereo not given) ... -0.43

Tell us which log10 of IC90 value is on record for O=C1Nc2ccc(F)c(F)c2C(C#Cc2cccnc2)(C(F)(F)F)O1 (stereo not given)
-1.23

----------
Tested on: Human immunodeficiency virus type 1 reverse transcriptase (Human immunodeficiency virus 1), Q72547 [K103N]
So basically, if IC90 comes in under 200 nM it's fulfilled, and if it's 200 nM or more it's not fulfilled.

// below: answered compounds
CC#CCOC1(C(F)(F)F)OC(=O)Nc2ccc(Cl)cc21 (stereo unspecified) ... not fulfilled
C=CCOC1(C(F)(F)F)OC(=O)Nc2ccc(F)c(F)c21 (stereo unspecified) ... not fulfilled
C/C=C\COC1(C(F)(F)F)OC(=O)Nc2ccc(Cl)cc21 (stereo unspecified) ... not fulfilled

Lab note: confirm whether the reported IC90 for this compound is below 200 nM, equality not counting. compound: O=C1Nc2ccc(F)cc2C(C#Cc2ccsc2)(C(F)(F)F)O1 (stereo unspecified)
fulfilled

Lab note: confirm whether the reported IC90 for this compound is below 200 nM, equality not counting. compound: CC(C)CCOC1(C(F)(F)F)OC(=O)Nc2ccc(Cl)cc21 (stereo unspecified)
not fulfilled

Lab note: confirm whether the reported IC90 for this compound is below 200 nM, equality not counting. compound: CC(C)=CCOC1(C(F)(F)F)OC(=O)Nc2ccc(F)c(F)c21 (stereo unspecified)
fulfilled
